readout label: pIC50
pIC50 here: minus log base 10 of the concentration, concentration in moles per litre.

Kindly note: Epidermal growth factor receptor (Homo sapiens, UniProt P00533), `CN(C)C/C=C/C(=O)NCCn1ccc2ncnc(Nc3ccc(Oc4cccc(C(F)(F)F)c4)c(Cl)c3)c21` , pIC50 value reported: 8.34
